System: GABAA receptor complex (TBPS binding)
Protocol: TBPS Binding Assay
Design: species or system Wistar rats
Study Conditions: [35S]TBPS 0.4 nM, GABA 1 μM, rat cerebral cortex membrane, +% inverse agonistic, 0% antagonistic
Readout Kind: TBPS binding Variation Rate

A selection of reference data follows.
Line Notation: Cc1noc(-c2cc3c(-c4ccsc4)nccc3[nH]c2=O)n1
TBPS binding Variation Rate: 34%

Line Notation: Cc1nc(-c2cc3c(-c4ccc(F)cc4)nccc3[nH]c2=O)no1
TBPS binding Variation Rate: 15%

Line Notation: Cc1nc(-c2cc3c(-c4cccc(Cl)c4)nccc3[nH]c2=O)no1
TBPS binding Variation Rate: 12%

Line Notation: CCc1noc(-c2cc3c(-c4ccc(OC)cc4)nccc3[nH]c2=O)n1
TBPS binding Variation Rate: 15%

Task item: Please report the recorded TBPS binding Variation Rate for Cc1nc(-c2cc3c(-c4ccc(Cl)cc4)nccc3[nH]c2=O)no1 .
Reply: 13%

Task item: Endpoint output: TBPS binding Variation Rate of CC(C)c1nc(-c2cc3c(-c4ccccc4)nccc3[nH]c2=O)no1 . Value?
Reply: -9%
